Values were extracted from patent US10953012B2.

pIC50: −log10 of the molar value.
Parameter pIC50, tested on hPASK (kinase domain) (Homo sapiens (Human), UniProt Q96RG2), listed per item.
Sequence (Q96RG2 999-1251): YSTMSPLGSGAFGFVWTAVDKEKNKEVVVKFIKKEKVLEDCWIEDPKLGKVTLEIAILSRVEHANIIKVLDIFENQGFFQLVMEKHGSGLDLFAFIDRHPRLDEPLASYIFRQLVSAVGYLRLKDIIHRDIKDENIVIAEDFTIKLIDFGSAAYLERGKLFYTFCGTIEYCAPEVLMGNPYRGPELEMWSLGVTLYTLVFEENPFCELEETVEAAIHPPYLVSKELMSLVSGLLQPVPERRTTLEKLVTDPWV

Recorded results for 3 compounds are shown here.
Cc1nn2c(=O)cc(-c3ccccc3)[nH]c2c1-c1ccc(F)cc1 ≤ 5.00
Cc1nn2c(=O)c(C#N)c(-c3ccccc3)[nH]c2c1-c1ccccc1 ≥ 5.00
COCc1cc(=O)n2nc(-c3ccc(Cl)cc3)cc2[nH]1 ≤ 5.00

What the record says about Cc1cc(=O)n2nc(-c3ccc(Cl)cc3)cc2[nH]1 : pIC50 is ≤ 5.00

Recorded pIC50 (compound Cc1[nH]c2c(-c3ccc(Cl)cc3)cnn2c(=O)c1Cc1ccccc1 ): ≥ 5.00

The compound listed as COc1ccc(-c2nn3c(=O)cc(C(C)C)[nH]c3c2-c2ccccc2)cc1 has a reported pIC50 of ≤ 5.00
